Read-out: Forkhead box O1 (FOXO1), FOXO1 (gene 2308)
Test: LTEA_HepaRG_FOXO1: Life Technologies and Expression Analysis (LTEA) Assay for Forkhead box O1 (FOXO1) using HepaRG (AID 2283456)
Details: mRNA level, 48 h; actives raise or lower the signal
Active and inactive are the calls of the source. How the source made its calls: active means hit-call score of the fitted dose curve at least 0.9, where 1 is the maximum; inactive means score below 0.9.
Possible outcomes: active, inactive

INSERT INTO assay_data (item_smiles, category) VALUES
  ('O=C(Oc1ccccc1)c1cccc(C(=O)Oc2ccccc2)c1', 'inactive'),
  ('O=C(N[C@@H](c1ccccc1)[C@@H]1CCCCN1)c1cccc(C(F)(F)F)c1Cl', 'active'),
  ('C=CCc1ccc(OC)c(OC)c1', 'inactive');

* * *

Read-out: Forkhead box O1 (FOXO1), FOXO1 (gene 2308)
Assay: LTEA_HepaRG_FOXO1: Life Technologies and Expression Analysis (LTEA) Assay for Forkhead box O1 (FOXO1) using HepaRG (AID 2283456)
Conditions: mRNA level, 48 h; actives raise or lower the signal
The source made the active and inactive calls. How the source made its calls: active means hit-call score of the fitted dose curve at least 0.9, where 1 is the maximum; inactive means score below 0.9.
property-label: outcome

INSERT INTO results (item_smiles, assay_result) VALUES
  ('CCOCCOCCO', 'inactive'),
  ('COC(=O)CCCC(=O)OC', 'inactive'),
  ('CC(C)OC(=O)C(C)(C)Oc1ccc(C(=O)c2ccc(Cl)cc2)cc1', 'inactive'),
  ('O=C1c2c(O)cccc2Cc2cccc(O)c21', 'inactive'),
  ('Cc1occc(=O)c1O', 'inactive'),
  ('COC(=O)[C@H]1[C@H]2C[C@@H]3c4[nH]c5cc(OC)ccc5c4CCN3C[C@H]2C[C@@H](OC(=O)c2cc(OC)c(OC)c(OC)c2)[C@@H]1OC', 'inactive'),
  ('O=[Si]=O', 'inactive');

* * *

Read-out: Early growth response protein 1 (EGR1) transcription factor, EGR1 (gene 1958)
Assay: LTEA_HepaRG_EGR1: Life Technologies and Expression Analysis (LTEA) Assay for Early growth response protein 1 (EGR1) transcription factor using HepaRG (AID 2283490)
Conditions: mRNA level, 48 h; actives raise or lower the signal
Activity calls are given as the source filed them. The calls were made as follows: active = hit-call score of the fitted dose curve at least 0.9, where 1 is the maximum; inactive = score below 0.9.
property-label: outcome

INSERT INTO measurements (molecule, assay_result) VALUES
  ('CC(=O)CC(c1ccccc1)c1c(O)c2ccccc2oc1=O (stereo unspecified)', 'inactive'),
  ('CC(C)(O)c1ccc(CNC(=O)c2cccnc2Oc2ccc(F)cc2)cc1', 'inactive'),
  ('CC(=O)S[C@H](C(=O)N[C@H]1Cc2ccccc2[C@H]2CCC[C@@H](C(=O)O)N2C1=O)C(C)C', 'inactive'),
  ('NC=O', 'inactive'),
  ('CC1(C)C(=O)NC(=O)N1CO', 'inactive'),
  ('O=C1c2c(O)cccc2Cc2cccc(O)c21', 'inactive');

* * *

Test system: guinea pig Dopamine Transporter (DAT), gene 100714898
Test: NVS_TR_gDAT: NovaScreen (NVS) Transporter Assay for guinea pig Dopamine Transporter (DAT) (AID 2283369);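 further: active compounds lower bound radioligand signal relative to DMSO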
Inconclusive results are not listed. Calls of active or inactive are those of the source. The calls were made as follows: active = hit-call score of the fitted dose curve at least 0.9, where 1 is the maximum; inconclusive = response in the unintended direction; inactive = score below 0.9.
Possible outcomes: true (1) for active, false (0) for inactive

INSERT INTO assay_data (molecule, category) VALUES
  ('Cn1cnc2c1c(=O)[nH]c(=O)n2C', 'true (1)'),
  ('CCc1nc(N)nc(N)c1-c1ccc(Cl)cc1', 'true (1)'),
  ('CSc1ccc(Oc2ccc(S(N)(=O)=O)cc2CN(C)C)cc1C', 'true (1)'),
  ('O=C(N[C@@H](c1ccccc1)[C@@H]1CCCCN1)c1cccc(C(F)(F)F)c1Cl', 'true (1)'),
  ('CN(C)C(=O)NC1(c2ccccc2)CCN(CCC[C@]2(c3ccc(Cl)c(Cl)c3)CCCN(C(=O)c3ccccc3)C2)CC1', 'true (1)'),
  ('CCCCC(CC)COP(=O)(OCC(CC)CCCC)OCC(CC)CCCC (stereo unspecified)', 'false (0)');

* * *

Read-out: DNA damage-inducible transcript 3 (DDIT3), DDIT3 (gene 1649)
Assay: LTEA_HepaRG_DDIT3: Life Technologies and Expression Analysis (LTEA) Assay for DNA damage-inducible transcript 3 (DDIT3) using HepaRG (AID 2283488)
Settings: mRNA level, 48 h; actives raise or lower the signal
Activity calls are given as the source filed them. The calls were made as follows: active = hit-call score of the fitted dose curve at least 0.9, where 1 is the maximum; inactive = score below 0.9.
Possible outcomes: 1 = active, 0 = inactive

INSERT INTO assay_data (molecule, category) VALUES
  ('CC(=O)[C@@]1(O)CC[C@H]2[C@@H]3CCC4=CC(=O)CC[C@]4(C)[C@H]3CC[C@@]21C', 0),
  ('Cc1c(C)c2c(c(C)c1O)CCC(C)(COc1ccc(CC3SC(=O)NC3=O)cc1)O2 (centres undefined)', 0),
  ('O=C(Oc1ccccc1)c1cccc(C(=O)Oc2ccccc2)c1', 0),
  ('Cc1ccc(C(C)(C)C)c(O)c1', 0),
  ('N[C@@H](Cc1c[nH]c2ccccc12)C(=O)O', 0),
  ('O=C1c2c(O)cccc2Cc2cccc(O)c21', 0),
  ('Cc1cc(SC2=C(O)C[C@@](CCc3ccc(N)cc3)(C(C)C)OC2=O)c(C(C)(C)C)cc1CO', 0),
  ('CSc1ccc(Oc2ccc(S(N)(=O)=O)cc2CN(C)C)cc1C', 1),
  ('CC1(C)C(=O)NC(=O)N1CO', 0),
  ('c1ccc2occc2c1', 0),
  ('CN(C)C(=O)NC1(c2ccccc2)CCN(CCC[C@]2(c3ccc(Cl)c(Cl)c3)CCCN(C(=O)c3ccccc3)C2)CC1', 1),
  ('CCCCCCC(CCCCCCCCCCC(=O)OCC(COC(C)=O)OC(C)=O)OC(C)=O (centres undefined)', 0),
  ('COc1ccc(OC(F)(F)F)cc1CN[C@H]1CCCN[C@H]1c1ccccc1', 1),
  ('CCCCCCC(C=O)=Cc1ccccc1', 0),
  ('CCCC[C@H]1CN(CC2CCOCC2)C(=O)OC12CCN(C1(C)CCN(C(=O)c3c(C)ncnc3C)CC1)CC2', 0),
  ('O=C(O)CC(O)(CC(=O)O)C(=O)O', 0),
  ('CC(COCC(C)OC(=O)c1ccccc1)OC(=O)c1ccccc1 (centres undefined)', 0),
  ('O=C1NC(=O)C(c2ccccc2)(c2ccccc2)N1', 0),
  ('Cn1cnc2c1c(=O)[nH]c(=O)n2C', 0),
  ('CCCCCCCCCCCCCCCCO', 0),
  ('CCC(C)N(C)C(=O)c1cc2ccccc2c(-c2ccccc2Cl)n1 (centres undefined)', 1),
  ('CCN(CC)CCOc1ccc(C(=C(Cl)c2ccccc2)c2ccccc2)cc1', 1),
  ('O=C1OC(c2ccc(O)cc2)(c2ccc(O)cc2)c2ccccc21', 0),
  ('CC(C)c1cccc(C(C)C)c1NC(=O)NS(=O)(=O)c1cc(C(C)(C)O)co1', 0);

* * *

Test: CCTE_Shafer_MEA_acute_per_network_burst_electrodes_number_mean: CCTE's Neural Acute Assay for Mean Number of Electrodes in a Network Burst, Shafer Lab (AID 2284021);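 further: curves fitted for decreases only so hits reduce electrodes per burst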
Method: CCTE_Shafer_MEA_acute assay is conducted using Axion Biosystems 48 well microelectrode array (MEA) plates and Maestro recording system. Each well of the MEA plate contains a grid of 16 microelectrodes embedded in the culture surface. Electrically active cells, such as neurons, can be cultured over the electrodes, and electrical activity in these cells can be recorded extracellularly. […]
Activity calls are given as the source filed them. The calls were made as follows: active = hit-call score of the fitted dose curve at least 0.9, where 1 is the maximum; inactive = score below 0.9.
Possible outcomes: YES for active, NO for inactive

INSERT INTO measurements (compound, category) VALUES
  ('Nc1nc(=S)c2[nH]cnc2[nH]1', 'NO'),
  ('COC(=O)[C@H]1[C@H]2C[C@@H]3c4[nH]c5cc(OC)ccc5c4CCN3C[C@H]2C[C@@H](OC(=O)c2cc(OC)c(OC)c(OC)c2)[C@@H]1OC', 'NO'),
  ('CCc1cc(C2=C(C(=O)O)N(c3ccccc3C(F)(F)F)S(=O)(=O)c3ccccc32)cc2c1OCO2', 'NO'),
  ('c1ccc2occc2c1', 'NO'),
  ('O=C1OC(c2ccc(O)cc2)(c2ccc(O)cc2)c2ccccc21', 'NO'),
  ('CCN(CC)CCOc1ccc(C(=C(Cl)c2ccccc2)c2ccccc2)cc1', 'NO'),
  ('O=C(N[C@@H](c1ccccc1)[C@@H]1CCCCN1)c1cccc(C(F)(F)F)c1Cl', 'YES'),
  ('COc1ccc(OC(F)(F)F)cc1CN[C@H]1CCCN[C@H]1c1ccccc1', 'NO'),
  ('CSc1ccc(Oc2ccc(S(N)(=O)=O)cc2CN(C)C)cc1C', 'NO'),
  ('CCCCC(CC)COP(=O)(OCC(CC)CCCC)OCC(CC)CCCC (stereo not given)', 'NO'),
  ('Oc1ccc(O)cc1', 'NO'),
  ('Cc1ccc(C(C)(C)C)c(O)c1', 'NO'),
  ('Cc1cc(SC2=C(O)C[C@@](CCc3ccc(N)cc3)(C(C)C)OC2=O)c(C(C)(C)C)cc1CO', 'NO'),
  ('CC(C)COC(=O)CCCCC(=O)OCC(C)C', 'NO'),
  ('CC(N)=O', 'NO'),
  ('C/C=C/c1ccc(OC)cc1', 'NO'),
  ('NC(=Nc1ccccc1)Nc1ccccc1', 'NO'),
  ('OCC(CO)n1cnc(-c2ccc(F)cc2)c1-c1ccnc(Oc2ccccc2)n1', 'NO'),
  ('Cc1cc(Cc2ccc(N)c(C)c2)ccc1N', 'YES'),
  ('CN(C)C(=O)NC1(c2ccccc2)CCN(CCC[C@]2(c3ccc(Cl)c(Cl)c3)CCCN(C(=O)c3ccccc3)C2)CC1', 'YES');
